The measured values listed here are drawn from patent EP1444982A1.

Target: MEK1 (h) (Homo sapiens)
Sequence (Q02750 whole entry): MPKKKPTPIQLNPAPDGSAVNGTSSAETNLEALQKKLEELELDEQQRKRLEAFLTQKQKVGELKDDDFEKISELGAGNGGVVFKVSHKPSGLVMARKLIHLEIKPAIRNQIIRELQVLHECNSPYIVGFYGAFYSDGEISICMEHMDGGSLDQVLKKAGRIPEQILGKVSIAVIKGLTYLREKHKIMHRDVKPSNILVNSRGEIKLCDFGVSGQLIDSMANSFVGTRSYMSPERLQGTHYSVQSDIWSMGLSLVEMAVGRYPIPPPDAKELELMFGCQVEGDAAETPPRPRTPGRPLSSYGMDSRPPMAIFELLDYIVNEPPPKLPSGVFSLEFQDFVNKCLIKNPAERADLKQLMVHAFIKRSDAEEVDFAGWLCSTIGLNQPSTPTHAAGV
Test: Kinase inhibition assay: MEK1 (coupled to MAPK2 assay)
Type: biochemical
Settings: 30µM Testsubstanz (100 µM ATP); read-out: Hemmung von Kinasen in % MEK1 (h)
Value Type: inhibition at 30 µM (%)

{"Compound": "Cn1c(-c2ccc([S+](C)[O-])cc2)nc2c(Sc3ccccc3)ncnc21 (centres unmarked)", "Value Type": "inhibition at 30 µM", "Measured Result": 3}
{"Compound": "Cn1cnc2c(Sc3ccc(F)cc3)ncnc21", "Value Type": "inhibition at 30 µM", "Measured Result": 6}
{"Compound": "Nc1ncnc2c1ncn2Cc1ccc(F)cc1 [Verbd. 42a, 9-(4-Fluoro-benzyl)-9H-purin-6-ylamin]", "Value Type": "inhibition at 30 µM", "Measured Result": 7}
{"Compound": "Cn1c(-c2ccccc2)nc2c(Sc3ccccc3)ncnc21", "Value Type": "inhibition at 30 µM", "Measured Result": 4}
{"Compound": "c1ccc(Nc2ncnc3[nH]cnc23)cc1", "Value Type": "inhibition at 30 µM", "Measured Result": 19}
{"Compound": "Fc1ccc(Sc2ncnc3c2ncn3Cc2ccccc2)cc1", "Value Type": "inhibition at 30 µM", "Measured Result": 4}
{"Compound": "c1ccc(Sc2ncnc3[nH]ccc23)cc1", "Value Type": "inhibition at 30 µM", "Measured Result": 41}
{"Compound": "Cn1c(-c2ccc(S(C)(=O)=O)cc2)nc2c(Sc3ccccc3)ncnc21", "Value Type": "inhibition at 30 µM", "Measured Result": 4}
{"Compound": "Fc1ccc(Nc2ncnc3[nH]cnc23)cc1", "Value Type": "inhibition at 30 µM", "Measured Result": 34}
{"Compound": "Cn1c(-c2ccc([S+](C)[O-])cc2)nc2c(Sc3ccc(F)cc3)ncnc21 (centres unmarked)", "Value Type": "inhibition at 30 µM", "Measured Result": 1}
{"Compound": "Fc1ccc(Sc2ncnc3[nH]ccc23)cc1", "Value Type": "inhibition at 30 µM", "Measured Result": 36}
{"Compound": "c1ccc(Sc2ncnc3[nH]cnc23)cc1", "Value Type": "inhibition at 30 µM", "Measured Result": 0}
{"Compound": "Fc1ccc(Cn2cnc3c(Sc4ccccc4)ncnc32)cc1", "Value Type": "inhibition at 30 µM", "Measured Result": 1}
{"Compound": "Cn1cnc2c(Nc3ccc(F)cc3)ncnc21", "Value Type": "inhibition at 30 µM", "Measured Result": 8}
